Where do these numbers come from? They come from PubChem BioAssay (EPA / NIEHS).

# Protocol Description: APR_HepG2_P-H2AX_72hr: Apredica 72-hour HepG2 Assay for H2AX Phosphorylation (AID 2282916);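 further: phospho-histone H2A.x immunostain intensity per cell marking DNA damage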
# Details: imaging, actives raise or lower the signal
Calls of active or inactive are those of the source. How the source made its calls: active means hit-call score of the fitted dose curve at least 0.9, where 1 is the maximum; inactive means score below 0.9.
Labels: active, inactive

- Molecule: "Cc1cc(F)ccc1-c1cc(N2CC[C@@H](O)[C@H]2CO)ncc1N(C)C(=O)C(C)(C)c1cc(C(F)(F)F)cc(C(F)(F)F)c1"
  Class Label: "active"
- Molecule: "C[C@]12CC[C@@H]3c4ccc(O)cc4CC[C@H]3[C@@H]1CCC2=O"
  Class Label: "inactive"
- Molecule: "CC(C)(c1cc(Br)c(O)c(Br)c1)c1cc(Br)c(O)c(Br)c1"
  Class Label: "active"
- Molecule: "CCCCCCCC[Si](OCC)(OCC)OCC"
  Class Label: "active"
- Molecule: "CCN(CC)C(=O)c1cc(S(=O)(=O)Cc2ccccc2)c(N2CCC(c3ccccc3)CC2)cc1N(CC)CCN(C)C"
  Class Label: "active"
- Molecule: "Cc1cccc2ccccc12"
  Class Label: "inactive"
- Molecule: "Clc1ccccc1C(c1ccccc1)(c1ccccc1)n1ccnc1"
  Class Label: "active"
- Molecule: "O=C1O[C@H]([C@@H](O)CO)C(O)=C1O"
  Class Label: "active"
- Molecule: "O=c1c(-c2ccc(O)cc2)coc2cc(O)cc(O)c12"
  Class Label: "inactive"
- Molecule: "OC12N=C(c3ccccc3)SC1Cc1cc(Cl)ccc12 (stereo unspecified)"
  Class Label: "active"
- Molecule: "Oc1ccccc1"
  Class Label: "inactive"

----------
# Study Target: Transcription factor Sp1 (Homo sapiens) (UniProt P08047)
# Sequence (P08047 whole entry, looked up): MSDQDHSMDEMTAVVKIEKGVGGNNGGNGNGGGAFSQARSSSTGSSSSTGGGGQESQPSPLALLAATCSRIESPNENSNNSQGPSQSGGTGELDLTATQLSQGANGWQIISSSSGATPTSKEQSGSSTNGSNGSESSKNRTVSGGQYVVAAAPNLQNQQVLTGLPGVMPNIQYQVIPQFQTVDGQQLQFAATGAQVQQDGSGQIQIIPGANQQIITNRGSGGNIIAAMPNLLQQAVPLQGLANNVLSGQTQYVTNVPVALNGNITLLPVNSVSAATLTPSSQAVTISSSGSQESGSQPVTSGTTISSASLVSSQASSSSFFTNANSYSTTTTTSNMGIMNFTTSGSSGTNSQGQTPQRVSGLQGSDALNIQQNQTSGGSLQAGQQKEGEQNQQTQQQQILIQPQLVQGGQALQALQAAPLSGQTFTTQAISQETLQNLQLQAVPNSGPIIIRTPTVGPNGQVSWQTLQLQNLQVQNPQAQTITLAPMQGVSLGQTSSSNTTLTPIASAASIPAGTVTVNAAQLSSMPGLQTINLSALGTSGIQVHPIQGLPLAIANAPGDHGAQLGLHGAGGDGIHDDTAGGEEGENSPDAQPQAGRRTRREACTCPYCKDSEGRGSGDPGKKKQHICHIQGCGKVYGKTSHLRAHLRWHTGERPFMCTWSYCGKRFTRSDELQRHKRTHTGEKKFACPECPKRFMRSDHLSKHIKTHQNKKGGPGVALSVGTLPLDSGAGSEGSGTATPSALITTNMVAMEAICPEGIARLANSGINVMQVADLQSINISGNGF
# Protocol Description: ATG_Sp1_CIS: Attagene CIS-FACTORIAL HepG2 Assay for human Specificity Protein 1 (Sp1) (AID 2282961)
# Details: HepG2 Sp1 cis-reporter transcription, actives raise or lower the signal
Active and inactive are the calls of the source. Rule for the calls: active = hit-call score of the fitted dose curve at least 0.9, where 1 is the maximum; inactive = score below 0.9.
Labels: T = active, F = inactive

- Structure Smiles: "Cc1occc1C(=O)Nc1ccc(C(=O)N2CCC(F)(F)/C(=C\\C(=O)N3CCC(N4CCCCC4)CC3)c3ccccc32)cc1"
  Study Target: "Transcription factor Sp1 (Homo sapiens) (UniProt P08047)"
  Class Label: "T"
- Structure Smiles: "C[C@]12CC[C@@H]3c4ccc(O)cc4CC[C@H]3[C@@H]1CC[C@H]2O"
  Study Target: "Transcription factor Sp1 (Homo sapiens) (UniProt P08047)"
  Class Label: "F"
- Structure Smiles: "O=C1O[C@H]([C@@H](O)CO)C(O)=C1O"
  Study Target: "Transcription factor Sp1 (Homo sapiens) (UniProt P08047)"
  Class Label: "F"
- Structure Smiles: "Cc1cccc2ccccc12"
  Study Target: "Transcription factor Sp1 (Homo sapiens) (UniProt P08047)"
  Class Label: "F"
- Structure Smiles: "CC[C@@H]1C[C@H](N(Cc2cc(C(F)(F)F)cc(C(F)(F)F)c2)C(C)=O)c2cc(C(F)(F)F)ccc2N1C(=O)OC(C)C"
  Study Target: "Transcription factor Sp1 (Homo sapiens) (UniProt P08047)"
  Class Label: "F"
- Structure Smiles: "Clc1cc(Cl)c2c(c1)N=C1CCCCCN1C2"
  Study Target: "Transcription factor Sp1 (Homo sapiens) (UniProt P08047)"
  Class Label: "F"
